Measured values drawn from ChEMBL document CHEMBL3507680 for this set.

cytotoxicity at 70.5 h values by entry
run.description: Human HepG2 cell viability assay in 384 well format
Format: toxicity, cell-based
Design: dose 125 nL, time 70.5 hour; concentration not given beside the values
condition.summary: HepG2 cells, read-out: Inhibition
Could you kindly put the unit after your number?

Worked examples, 4 compounds total:
Cc1cccnc1C(=O)N1CCCC(c2[nH]ncc2S(C)(=O)=O)C1 (stereo unspecified): 0.897%
Cc1ccc(-n2c(COC(C)C)n[nH]c2=O)cc1: -2.37%
CN(C)c1nc2n(c(=O)n1)CCN2C(=O)Nc1cccc(Cl)c1: -9.23%
Cn1cc(CN2CC3(CCN(Cc4ccsc4)C3)C2)cn1: 24.7%

Looking up Cc1nc2c(cc1C(=O)O)CCN(Cc1ccsc1)CC2 , I found its cytotoxicity at 70.5 h recorded as -6.12%

Please fill in: cytotoxicity at 70.5 h reported for CCOC(=O)C1CCN(C(=O)CN2CCCC2c2ccccc2C)CC1 (stereo unspecified) = -10.7%

Value of cytotoxicity at 70.5 h reported for the compound CC(=O)N1CCC2(CC1)C(=O)N(C)c1c(F)cccc12 is 3.91%

The compound listed as CCc1nsc(N2CCCN(C(=O)COc3ccccc3)CC2)n1 has a reported cytotoxicity at 70.5 h of -3.48%

Form field cytotoxicity at 70.5 h, entry CN(C)CCN1CCC(NC2CSCCc3ccccc32)CC1 (stereo unspecified) : -7.29%

The measured cytotoxicity at 70.5 h associated with CN(C)c1ccc(C(=O)NCCCNc2ccc(C(F)(F)F)cn2)cc1 reads -13%

O=c1oc(-c2cccs2)nn1CC(O)c1ccc(F)cc1 (stereo unspecified) yielded cytotoxicity at 70.5 h of -11.2%
